- Subject of test: 5HT3a receptor expressed in HEK-293T cells (Homo sapiens (Human), UniProt P46098)
- Sequence (P46098 24-478): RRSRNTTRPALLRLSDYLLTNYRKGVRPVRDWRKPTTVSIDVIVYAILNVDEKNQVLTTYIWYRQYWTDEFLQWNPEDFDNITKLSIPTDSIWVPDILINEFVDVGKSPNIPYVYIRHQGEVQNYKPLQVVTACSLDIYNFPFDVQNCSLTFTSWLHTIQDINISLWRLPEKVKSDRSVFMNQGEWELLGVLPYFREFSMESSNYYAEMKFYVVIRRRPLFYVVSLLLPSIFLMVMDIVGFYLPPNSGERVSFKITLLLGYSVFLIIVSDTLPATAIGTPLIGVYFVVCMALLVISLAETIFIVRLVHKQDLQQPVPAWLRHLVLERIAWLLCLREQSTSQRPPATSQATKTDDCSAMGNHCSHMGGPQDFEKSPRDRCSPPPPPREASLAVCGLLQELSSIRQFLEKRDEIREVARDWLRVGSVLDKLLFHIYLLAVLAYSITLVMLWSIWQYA
- Test method notes: Inhibition of Ca flux activity of 5HT3 in vitro assay
- Experimental conditions: calcium flux, 5HT 216 nM, approximate values
Counter-ions that a name gives are not always drawn.
Measured property: pIC50
Numbers only, as −log10 of the molar value.

Reference set (5 entries):
Molecule | pIC50
CN1C2CCC1CC(OC(=O)c1cn(CC(F)F)c3ccccc13)C2 (centres unmarked) | 9.11
CN1C2CCC1CC(OC(=O)c1cn([C@H]3CCOC3)c3ccccc13)C2 (some centres unmarked) | 9.08
CN1C2COCC1CC(OC(=O)c1cn(CCF)c3ccc(C#N)cc13)C2 (centres unmarked) [Example 160, trifluoroacetic acid salt] | 9.13
CN1[C@@H]2COC[C@H]1CC(NC(=O)c1cn(CC(F)F)c3ccc(F)cc13)C2 (some centres unmarked) [Example 63] | 9.31
CN1[C@@H]2COC[C@H]1CC(NC(=O)c1nn(CC(F)F)c3ncccc13)C2 (some centres unmarked) | 8.97

Need pIC50 for each of these molecules.
1. CN1[C@@H]2CC[C@H]1CC(OC(=O)c1cn(CC(F)(F)F)c3ccccc13)C2 (some centres unmarked)
2. CN1[C@@H]2COC[C@H]1CC(NC(=O)c1cn(CC(F)(F)F)c3ccc(F)cc13)C2 (some centres unmarked)

## Result
[9.05, 9.28]
